Overview of recorded pKd for various compounds
molecular target: Multidrug efflux pump subunit AcrB (Escherichia coli (strain B / BL21-DE3)); experiment: Binding Assay; details: pH 7.5
Sequence (P31224 whole entry): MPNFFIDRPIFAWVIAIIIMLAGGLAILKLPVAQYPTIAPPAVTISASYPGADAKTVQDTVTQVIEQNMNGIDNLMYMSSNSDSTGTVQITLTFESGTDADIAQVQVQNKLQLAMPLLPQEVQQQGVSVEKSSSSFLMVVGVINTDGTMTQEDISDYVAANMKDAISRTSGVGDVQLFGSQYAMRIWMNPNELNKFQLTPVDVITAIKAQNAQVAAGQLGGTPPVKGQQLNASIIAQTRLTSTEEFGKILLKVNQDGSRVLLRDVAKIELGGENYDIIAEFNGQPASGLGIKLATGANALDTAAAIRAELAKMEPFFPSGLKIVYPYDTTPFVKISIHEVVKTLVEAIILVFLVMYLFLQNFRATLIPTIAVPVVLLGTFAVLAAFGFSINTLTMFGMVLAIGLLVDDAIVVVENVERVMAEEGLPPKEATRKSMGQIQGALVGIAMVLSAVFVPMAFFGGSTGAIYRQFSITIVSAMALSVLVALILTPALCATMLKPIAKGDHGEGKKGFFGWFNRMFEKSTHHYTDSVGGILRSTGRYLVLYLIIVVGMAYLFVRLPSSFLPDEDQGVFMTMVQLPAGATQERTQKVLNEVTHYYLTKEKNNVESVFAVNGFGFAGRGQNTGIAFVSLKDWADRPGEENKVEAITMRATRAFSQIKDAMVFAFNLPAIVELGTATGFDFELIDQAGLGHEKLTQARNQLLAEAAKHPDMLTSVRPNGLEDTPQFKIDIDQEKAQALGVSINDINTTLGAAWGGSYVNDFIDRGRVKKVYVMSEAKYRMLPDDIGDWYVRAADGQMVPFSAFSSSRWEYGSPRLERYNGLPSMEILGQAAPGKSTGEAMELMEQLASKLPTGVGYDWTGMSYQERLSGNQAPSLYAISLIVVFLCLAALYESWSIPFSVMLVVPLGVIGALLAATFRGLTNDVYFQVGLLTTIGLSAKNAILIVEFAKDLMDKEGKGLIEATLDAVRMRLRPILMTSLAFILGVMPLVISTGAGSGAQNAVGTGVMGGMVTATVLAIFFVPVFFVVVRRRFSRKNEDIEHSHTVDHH
Where a SMILES comes first, the peptide text is derived from it. [ ]: non-standard residue; d: D form. The star is where a group is joined. ξ: configuration not given here. ξR = N=C(N)NCCCC(N)C(=O)O; βNA = c1ccc2cc(N*)ccc2c1
// pKd: -log10(molar conc.)

NC(N)=NCCCC(NC(=O)[C@@H](N)Cc1ccccc1)C(=O)Nc1ccc2ccccc2c1 (some centres not stated) [MC-207,110] (H-Phe-[ξR]-βNA) :: 3.23

Looking up CO[C@@H]1[C@@H](OC(N)=O)[C@@H](O)[C@H](Oc2ccc3c(O)c(NC(=O)c4ccc(O)c(CC=C(C)C)c4)c(=O)oc3c2C)OC1(C)C , I see its pKd listed as 3.28
